Source of measurements: PubChem BioAssay (NCI)

- Tested on: SN12C renal
- Assay comment: NCI-60 one-dose screen, 48 h
- Condition label: 10 µM unless noted
The panel holds about 83,000 compounds, 20% with a hit somewhere; the sample as a whole holds those more often. Calls of active or inactive are those of the source. Rule for the calls: active = growth percent below 10; inactive = the rest.
Classes used: True (active), False (inactive)

>>> answer_label("COc1cc(-c2nc3sccn3c2-c2ccnc(NCCNS(=O)(=O)c3ccc(F)cc3)n2)ccc1F")
"False"
>>> answer_label("CN(Cc1ccccc1)c1nc(Cl)c(C2CC(c3ccc(Cl)cc3)=Cc3[nH][nH]c(=O)c32)s1 (stereo not given)")
"False"
>>> answer_label("C=C1C(=O)O[C@H]2[C@H]1CC/C(CNC(=O)/C=C/c1ccc(Br)cc1)=C\\CC[C@@]1(C)O[C@@H]21")
"True"
>>> answer_label("N#Cc1ccc(-c2ccc3c(c2)NC(=O)/C3=C\\c2ccc[nH]2)cc1")
"False"
>>> answer_label("CSc1nnc2c(=O)n(C)c(=O)n(C)c2n1")
"False"
>>> answer_label("COC(=O)Nc1ccc(NC(=O)OC)cc1")
"False"
>>> answer_label("COc1cc(C2NC(c3cc(OC)c(OC)c(OC)c3)C(C#N)(C#N)C2(C#N)C#N)cc(OC)c1OC (stereo not given)")
"False"
>>> answer_label("CC(=O)[C@@H]1CC[C@]2(C(=O)n3ccnc3)CC[C@]3(C)[C@H](CC[C@@H]4[C@@]5(C)Cc6c([nH]c7ccccc67)C(C)(C)[C@@H]5CC[C@]43C)[C@@H]12")
"False"
>>> answer_label("CCCCN(CCCC)CCc1c(C)cc(C)c(CCN(CCCC)CCCC)c1O")
"False"
>>> answer_label("c1ccc(N2N=C(c3cccc(Nc4ccncc4)c3)CC2c2ccc3c(c2)OCO3)cc1 (stereo not given)")
"False"
>>> answer_label("C#CC(=O)Nc1cccc2c1cc(C)n2-c1nc2c(c(NCc3ccccc3)n1)CCCC2")
"True"
>>> answer_label("COc1ccc(/C=C/c2n[nH]c3ccc(N4CCOC4=O)cc23)cc1")
"False"
>>> answer_label("CCC(=O)c1ccc(O)c(OC)c1")
"False"
>>> answer_label("C(=N\\Nc1ncc(-c2cc3cc4c(cc3o2)OCO4)s1)/c1c[nH]c2ccccc12")
"True"
>>> answer_label("O=C(O)c1cn(C2CC2)c2cc(N3CCN(C(=O)C[n+]4cccc5ccccc54)CC3)c(F)cc2c1=O")
"False"
>>> answer_label("CC(=O)OCC(=O)[C@@]1(O)CC[C@H]2[C@@H]3CC(=C(Br)Br)C4=CC(=O)CC[C@]4(C)[C@H]3C(=O)C[C@@]21C")
"False"
>>> answer_label("Cn1ncc2c(Nc3ccccc3Cl)nc(Cl)nc21")
"False"
>>> answer_label("CN1CCN(CC#CCNC(=O)[C@]23CCC(C)(C)C[C@H]2C2=CC[C@@H]4[C@@]5(C)Cc6c([nH]c7ccccc67)C(C)(C)[C@@H]5CC[C@@]4(C)[C@]2(C)CC3)CC1")
"False"
>>> answer_label("COc1cc(-c2nc3occn3c2-c2ccnc(NCCNS(=O)(=O)c3ccc(Cl)cc3)n2)ccc1F")
"False"
>>> answer_label("CCNC(=O)c1[nH]cc(-c2ccc(OC)cc2)c1-c1cc(OC)c(OC)c(OC)c1")
"False"
>>> answer_label("Nc1c(Cl)cc([N+](=O)[O-])cc1Br")
"False"
>>> answer_label("COc1ccc(-c2nc(SCCC(C)C)nc(N/N=C(/C)c3ccc(C)cc3)c2C#N)cc1")
"False"
>>> answer_label("COc1ccccc1/C=N/NC1=NC2C(N1)N(C)C(=O)N2C (stereo not given)")
"False"
>>> answer_label("O=C1Nc2c(ccc(Cl)c2Cl)/C1=C/c1ccc(O)cc1")
"False"
>>> answer_label("Clc1cc(Cl)cc(N2N=C(c3cccc(Nc4ccncc4)c3)CC2c2ccccc2)c1 (stereo not given)")
"False"
>>> answer_label("COc1cc2nc(-c3ccc(C#N)cc3)[nH]c(=O)c2cc1OC")
"False"
>>> answer_label("Cc1ccc(C(=O)Nc2ccccc2C(=O)N/N=C(\\c2ccccc2)c2ccccn2)cc1")
"False"
>>> answer_label("COc1cc(NCCN(CC(C)C)C2CCCC2)c2ncccc2c1")
"False"
>>> answer_label("NC(=S)N/N=C/c1ccc(OC(=O)COc2cc(Cl)c(Cl)cc2Cl)cn1")
"False"
>>> answer_label("O=c1[nH]c2c(s1)CCCC2CN1CCCCC1 (stereo not given)")
"False"
>>> answer_label("CN1CCCC1=Nc1ccccc1")
"False"
>>> answer_label("O=[N+]([O-])c1cccc(-c2nc(-c3ccc(Cl)cc3Cl)cn2-c2ccccc2)c1")
"False"
>>> answer_label("O=C1/C(=C/c2ccc(O)cc2)COc2ccc(-c3ccccc3)cc21")
"False"
>>> answer_label("CC(=O)c1c(-c2ccc(OC(F)(F)F)cc2)nc2ccccn12")
"False"
>>> answer_label("O=C1OC(=O)C2C1CC=CC2c1ccccc1 (stereo not given)")
"False"
>>> answer_label("NC(=O)C1(N2CCCCC2)CCN(CCCC(=O)c2ccc(F)cc2)CC1")
"False"
>>> answer_label("Cc1c(C2=CCCCC2)c2ccccn2c1C(=O)c1cccc(S(=O)(=O)N2CCOCC2)c1")
"False"
>>> answer_label("COc1ccc(-c2cnc(N)nc2-c2ccc(OC)cc2O)cc1")
"False"
>>> answer_label("O=C(N/N=C/c1ccc(O)c(O)c1)c1sc2ccccc2c1Cl")
"False"
>>> answer_label("O=C1c2ccccc2-c2c1c1c(NCCCO)nc3ccccc3c1n2Cc1ccccc1")
"False"

* * *

- Test system: UO-31 renal
- Assay comment: NCI-60 one-dose screen, 48 h (100 = growth as untreated, 0 = no growth, -100 = all killed)
- Condition label: 10 µM unless noted
About 83,000 compounds went through this panel and 20% of them were active in at least one assay; those are over-represented in the sample as a whole.
Use 50% as the dividing line for growth, with the line itself on the MET side and lower values as NOT MET.

>>> answer_label("Fc1ccc(-n2cc(COc3ncnc4sc5c(c34)CCCC5)nn2)cc1Cl")
"MET"
>>> answer_label("O=C(Nc1ccc2ncnc(Nc3ccc(Oc4cccc(F)c4)c(Cl)c3)c2c1)c1ccc(CNCCO)cc1")
"MET"
>>> answer_label("C=C(C)[C@@H]1CC[C@]2(C(=O)NCCCN(CCC#N)CCC#N)CC[C@]3(C)[C@H](CC[C@@H]4[C@@]5(C)CCC(=O)C(C)(C)[C@@H]5CC[C@]43C)[C@@H]12")
"MET"
>>> answer_label("Cc1ccc(C2CC(c3cccc(Nc4ccncc4)c3)=NN2c2cc(Cl)cc(Cl)c2)cc1 (stereo not drawn)")
"MET"
>>> answer_label("O=C(CN1CCOCC1)Nc1ccc2ncnc(Nc3ccc(OCc4cccc(F)c4)c(Cl)c3)c2c1")
"NOT MET"
>>> answer_label("COc1cc(CNC(=O)CCCCC[P+](c2ccccc2)(c2ccccc2)c2ccccc2)c(OC)c2c1OCO2")
"MET"
>>> answer_label("Cc1c2c(cc[n+]1Cc1ccccc1)c1ccc(OCC3CCCCC3)cc1n2CC1CCCCC1")
"NOT MET"
>>> answer_label("Cc1nccc2c3ccc(OCc4cn(-c5ccc(Cl)cc5)nn4)cc3n(CCCc3ccccc3)c12")
"NOT MET"
>>> answer_label("Clc1ccc(C2CC(c3cccc(Nc4ccncc4)c3)=NN2c2cc(Cl)cc(Cl)c2)cc1 (stereo not drawn)")
"MET"
>>> answer_label("CC(C)Cc1ccc(C(C)C(=O)NCc2ccc(Cn3c(=O)sn(-c4ccc(Cl)cc4)c3=O)cc2)cc1 (stereo not drawn)")
"MET"
>>> answer_label("C#CC(=O)Nc1cccc2c1cc(C)n2-c1nc2c(c(NCc3ccccc3)n1)CCCC2")
"NOT MET"
>>> answer_label("CN1CCN(c2ccc3nc(-c4cc(C(C)(C)C)c(O)c(C(C)(C)C)c4)[nH]c3c2)CC1")
"MET"
>>> answer_label("O=C1Nc2ccccc2/C1=C\\c1cccc(/C=C2/C(=O)Nc3ccccc32)n1")
"NOT MET"
>>> answer_label("CC(=O)O[C@H]1CC[C@@]2(C)[C@@H](CC[C@@H]3[C@@H]2CC[C@@]2(C)[C@H]3CC[C@]2(O)C(C)=O)C1")
"MET"
>>> answer_label("Cc1cccc(C)c1-c1cc(Cc2ccc(Cl)cc2)c(=O)[nH]n1")
"MET"

* * *

- System: RPMI-8226 leukemia
- Assay comment: NCI-60 one-dose screen, 48 h
- Condition label: 10 µM unless noted
Compounds without any hit were thinned out: in the full panel of roughly 83,000, 20% have a hit. The source made the active and inactive calls. How the source made its calls: active means growth percent below 10; inactive means the rest.
Classes used: active, inactive

>>> answer_label("Cn1c(COC(=O)NCCN2CCOCC2)nc2c(N3CCOCC3)nc(-c3ccccc3)nc21")
"active"
>>> answer_label("COc1cc2nc(-c3ccc(C(F)(F)F)cc3)cc(OCCCN3CCCCC3)c2cc1OC")
"inactive"
>>> answer_label("N#CC1=C(N)Oc2c(ccc3ccccc23)C1c1ccc([N+](=O)[O-])cc1 (stereo not drawn)")
"inactive"
>>> answer_label("O=C(Nc1ccccc1)Oc1ccccc1-c1ccccc1")
"inactive"
>>> answer_label("O=S(=O)(NCCNc1nccc(-c2c(-c3cccc(F)c3)nc3occn23)n1)c1cccc2ccccc12")
"inactive"
>>> answer_label("COC(=O)C1NC(=S)N(c2ccc(Cl)cc2)C1/C=C/c1ccccc1 (stereo not drawn)")
"inactive"
>>> answer_label("FC(F)(F)c1cccc(Oc2ccc(Nc3ncnc4ccc(OCCCN5CCOCC5)cc34)cc2Cl)c1")
"inactive"
>>> answer_label("CC[C@@]12C=CCN3CC[C@]4(c5cc(NC(=O)COc6cc(OCC(=O)Nc7cc8c(cc7OC)N(C)[C@H]7[C@@](O)(C(=O)OC)[C@H](OC(C)=O)[C@]9(CC)C=CCN%10CC[C@]87[C@@H]%109)cc7oc(-c8ccccc8)cc(=O)c67)c(OC)cc5N(C)[C@@H]4[C@](O)(C(=O)OC)[C@H]1OC(C)=O)[C@H]32")
"active"
